Attribute: inhibition
Target: Gag-Pol polyprotein (Human immunodeficiency virus type 1 group M subtype B (isolate HXB2)) (UniProt P04585)
Assay: RNase H inhibition, HIV 1 Gag Pol polyprotein, FRET biochemical assay, screening (AID 372)
Settings: HIV-1 RT RNase H, FRET RNA/DNA substrate fluorescence; at 10 µM; active compounds read high
The whole screen tested about 100,000 compounds, of which about 770 (0.77%) were called active. Shown is part of a subset that was picked to be rich in actives.
metric_name: inhibition (%)

COc1cc(CN2CCN(Cc3ccc4c(c3)OCO4)CC2)c([N+](=O)[O-])cc1OC : 6
Nc1ccc(-c2nc3ccccc3[nH]2)c(N)c1 : 4
COc1cccc(/C=C2\N=C(c3cccs3)OC2=O)c1OC : 8
Cc1cccc(C)c1NC(=O)c1ccc(N(Cc2ccc(Cl)cc2)S(C)(=O)=O)cc1 : 15
COc1ccccc1-c1c(C(F)(F)F)oc2c(CN(C)C)c(O)ccc2c1=O : 24
CCN(CC)S(=O)(=O)c1cc(-c2nnc(-c3ccc(C)cc3)o2)ccc1C : 3
O=C(Nc1ccccc1Cl)c1ccc(N2C(=O)c3ccccc3C2=O)cc1 : 16
COc1ccc(C(=O)NC(=S)Nc2ccc3ccccc3c2)cc1OC : 17
O=S(=O)(c1ccc(-c2csc(Nc3ccc4c(c3)OCO4)n2)cc1)N1CCOCC1 : 8
COC(=O)c1ccc(CSc2nnc(CCCN3C(=O)c4cccc5cccc(c45)C3=O)n2-c2ccccc2)cc1 : 15
